Reported values of yeast fitness for individual entries
B1: tRNA (parent)
chain: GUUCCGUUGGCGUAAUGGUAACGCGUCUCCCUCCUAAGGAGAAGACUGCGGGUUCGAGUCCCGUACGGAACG

- Variants of: B1
- test-method-notes: yeast fitness relative to wild type (ratio to wild type); higher = fitter; tRNA-Arg(CCU), competitive growth, 37 C, YPD
This sample holds only a part of the variants without activity.
Could you respond with only the numeric value?

GUUCGGUUGGCGUAUUGGUAACGCGUCUCCCUCCUAAGGAGAAGACUGCGGGUUCGAGUCCCGUACGGUACG [C5G A15U A69U]: 0.698

Task: Look up yeast fitness: GUUCCGUUGUCGUAAUGGUAACGCGUCUCCCUCCUAAGGAGAAGACUACGGGUUCGAGUCCCGUACGGAUCG [G10U G48A A70U]
Output: 0.649

Task: Tell me the measured yeast fitness of GUUGCGUUGGCGUAAUGGUAACGCGUCUCCCUCCUAAGGAGAAGACUGCGGGUUCGCGUCCCGUACGGAACG [C4G A57C] , please.
Output: 0.57

Task: Please report the recorded yeast fitness for GUUCCGUUGGCGUAAUGGUCACGCGUCUCCCUCCUAAGGAGAAGACUGCGGGUUCGAGCCCCGUACGGCACG [A20C U59C A69C] .
Output: 0.705
